# method-summary: Tmax in dog at 2 mg/kg, po or 0.5 mg/kg, iv
# Type: ADME, organism-based, Canis lupus familiaris
# measurement-conditions: in vivo
recorded-endpoint: Tmax (h)
Provide the reading as a plain figure in h.

QUERY: Consider the compound shown here: CNC(=O)Nc1cc(Oc2cncc(C)c2)c(-c2ccc(OCC(C)(C)O)nc2)cn1 What is its recorded Tmax?
RESULT: 1.33

----------
# method-summary: Cmax in dog at 2 mg/kg, po
# Format: ADME, organism-based, Canis lupus familiaris
# Parameters: dose 2 mg/kg, route oral
# measurement-conditions: in vivo
recorded-endpoint: Cmax (µM)
Provide the reading as a plain figure in µM.

QUERY: Consider the compound shown here: CNC(=O)Nc1cc(Oc2cncc(C)c2)c(-c2ccc(OCC(C)(C)O)nc2)cn1 What is its recorded Cmax?
RESULT: 3.52

----------
# method-summary: Oral bioavailability in dog at 2 mg/kg
# Format: ADME, organism-based, Canis lupus familiaris
# measurement-conditions: in vivo
recorded-endpoint: bioavailability

QUERY: Consider the compound shown here: CNC(=O)Nc1cc(Oc2cncc(C)c2)c(-c2ccc(OCC(C)(C)O)nc2)cn1 What is its recorded bioavailability?
RESULT: 99%

----------
# method-summary: Tmax in mouse at 5 mg/kg, po or 1 mg/kg, iv
# Assay type: ADME, organism-based
# measurement-conditions: in vivo
recorded-endpoint: Tmax (min)
Provide the reading as a plain figure in min.

QUERY: Consider the molecule shown here: CNC(=O)Nc1cc(Oc2cncc(C)c2)c(-c2ccc(OCC(C)(C)O)nc2)cn1 What is its recorded Tmax?
RESULT: 19.8

----------
# method-summary: Clearance in dog at 2 mg/kg, po or 0.5 mg/kg, iv
# Format: ADME, organism-based, Canis lupus familiaris
# measurement-conditions: in vivo
recorded-endpoint: clearance (mL/min/kg)
Provide the reading as a plain figure in mL/min/kg.

QUERY: Consider the compound shown here: CNC(=O)Nc1cc(Oc2cncc(C)c2)c(-c2ccc(OCC(C)(C)O)nc2)cn1 What is its recorded clearance?
RESULT: 4.17

----------
# method-summary: Cmax in rat at 2 mg/kg, po
# Assay type: ADME, organism-based
# Set-up: dose 2 mg/kg, route oral
# measurement-conditions: in vivo
recorded-endpoint: Cmax (nM)
Provide the reading as a plain figure in nM.

QUERY: Consider the compound shown here: CNC(=O)Nc1cc(Oc2cncc(C)c2)c(-c2ccc(OCC(C)(C)O)nc2)cn1 What is its recorded Cmax?
RESULT: 490

----------
# method-summary: Clearance in mouse at 5 mg/kg, po or 1 mg/kg, iv
# Format: ADME, organism-based
# measurement-conditions: in vivo
recorded-endpoint: clearance (L/h/kg)
Provide the reading as a plain figure in L/h/kg.

QUERY: Consider the compound shown here: CNC(=O)Nc1cc(Oc2cncc(C)c2)c(-c2ccc(OCC(C)(C)O)nc2)cn1 What is its recorded clearance?
RESULT: 0.37

----------
# method-summary: physchem
# measurement-conditions: SIF, pH 6.8
recorded-endpoint: solubility (µM)
Provide the reading as a plain figure in µM.

Known results for molecules:
CNC(=O)Nc1cc(Oc2cncc(C)c2)c(-c2ccc(OCC(C)(C)O)nc2)cn1: 46
CNC(=O)Nc1cc(Oc2cncc(C)c2)c(-c2ccc(OC[C@H](C)O)nc2)cn1: 176

QUERY: Consider the molecule shown here: CNC(=O)Nc1cc(Oc2cncc(C)c2)c(-c2ccc(OC[C@@H](C)O)nc2)cn1 What is its recorded solubility?
RESULT: 226
